Items are presented alongside their recorded percentage of EdU-negative.
# Tested on: hTERT-HMEC
# measurement_description: percentage of EdU-negative (G0-arrested) nuclei per well, 72 h; higher = more G0 arrest;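 also: secreted proteins added to cultured cells, EdU pulse at the end, nuclei found by Hoechst imaging, EdU status from nuclear versus surrounding ring intensity ratio, PBS as neutral control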
# condition_label: protein concentration 0.225 µM; reference: sequence is the full UniProt precursor, the tested protein was the secreted form or ectodomain
Please respond with the number in % and leave the unit unwritten.

Here is how some sequences turned out for percentage of EdU-negative.
- MVWKWMPLLLLLVCVATMCSAQDRTDLLNVCMDAKHHKTKPGPEDKLHDQCSPWKKNACCTASTSQELHKDTSRLYNFNWDHCGKMEPACKRHFIQDTCLYECSPNLGPWIQQVNQSWRKERFLDVPLCKEDCQRWWEDCHTSHTCKSNWHRGWDWTSGVNKCPAGALCRTFESYFPTPAALCEGLWSHSYKVSNYSRGSGRCIQMWFDSAQGNPNEEVARFYAAAMHVNAGEMLHGTGGLLLSLALMLQLWLLG: 5.92
- MVLCFPLLLLLLVLWGPVCPLHAWPKRLTKAHWFEIQHIQPSPLQCNRAMSGINNYTQHCKHQNTFLHDSFQNVAAVCDLLSIVCKNRRHNCHQSSKPVNMTDCRLTSGKYPQCRYSAAAQYKFFIVACDPPQKSDPPYKLVPVHLDSIL: 7.49

stdin: Report percentage of EdU-negative for MKGFTATLFLWTLIFPSCSGGGGGKAWPTHVVCSDSGLEVLYQSCDPLQDFGFSVEKCSKQLKSNINIRFGIILREDIKELFLDLALMSQGSSVLNFSYPICEAALPKFSFCGRRKGEQIYYAGPVNNPEFTIPQGEYQVLLELYTEKRSTVACANATIMCS please.
stdout: 6.1

stdin: Do the same for MFFWCACCLMVAWRVSASDAEHCPELPPVDNSIFVAKEVEGQILGTYVCIKGYHLVGKKTLFCNASKEWDNTTTECRLGHCPDPVLVNGEFSSSGPVNVSDKITFMCNDHYILKGSNRSQCLEDHTWAPPFPICKSRDCDPPGNPVHGYFEGNNFTLGSTISYYCEDRYYLVGVQEQQCVDGEWSSALPVCKLIQEAPKPECEKALLAFQESKNLCEAMENFMQQLKESGMTMEELKYSLELKKAELKAKLL please
stdout: 12

stdin: Do the same for MAAWSPAAAAPLLRGIRGLPLHHRMFATQTEGELRVTQILKEKFPRATAIKVTDISGGCGAMYEIKIESEEFKEKRTVQQHQMVNQALKEEIKEMHGLRIFTSVPKR [Q53S33] please
stdout: 5.94

stdin: Do the same for MEIVWEVLFLLQANFIVCISAQQNSPKIHEGWWAYKEVVQGSFVPVPSFWGLVNSAWNLCSVGKRQSPVNIETSHMIFDPFLTPLRINTGGRKVSGTMYNTGRHVSLRLDKEHLVNISGGPMTYSHRLEEIRLHFGSEDSQGSEHLLNGQAFSGEVQLIHYNHELYTNVTEAAKSPNGLVVVSIFIKVSDSSNPFLNRMLNRDTITRITYKNDAYLLQGLNIEELYPETSSFITYDGSMTIPPCYETASWIIMNKPVYITRMQMHSLRLLSQNQPSQIFLSMSDNFRPVQPLNNRCIRTNINFSLQGKDCPNNRAQKLQYRVNEWLLK [Q9NS85] please
stdout: 8.51

stdin: Do the same for MPRYVPLLLLLLLLRCSERGGGVNFGEKDAKVPGTWRDGVRVPGEGASWDSDRASPERRYGIVGLSQSISTKHPETSPKDSRIRENDVTADGRTTEDHITADPGTTEDSVTADPGTTEDNVTVDPGTTEGSVTADPATTKDYVSADPGTTKDSVTADPGTTENFVTADPGTTKDSITADPRTTEDSVTADPGTTKHSITVDPGTTEDSVTADPGTTKHSITADPGTTEDSVTADPGTTEDETTKHGDTHLL [E2RYF7] please
stdout: 5.54

====

# System: MCF7
# measurement_description: percentage of EdU-negative (G0-arrested) nuclei per well, 72 h; higher = more G0 arrest
# condition_label: protein concentration 0.0225 µM; reference: sequence is the full UniProt precursor, the tested protein was the secreted form or ectodomain
Items are presented alongside their recorded percentage of EdU-negative.
Please respond with the number in % and leave the unit unwritten.

- MGVCGYLFLPWKCLVVVSLRLLFLVPTGVPVRSGDATFPKAMDNVTVRQGESATLRCTIDDRVTRVAWLNRSTILYAGNDKWSIDPRVIILVNTPTQYSIMIQNVDVYDEGPYTCSVQTDNHPKTSRVHLIVQVPPQIMNISSDITVNEGSSVTLLCLAIGRPEPTVTWRHLSVKEGQGFVSEDEYLEISDIKRDQSGEYECSALNDVAAPDVRKVKITVNYPPYISKAKNTGVSVGQKGILSCEASAVPMAEFQWFKEETRLATGLDGMRIENKGRMSTLTFFNVSEKDYGNYTCVATNKLGNTNASITLYGPGAVIDGVNSASRALACLWLSGTLLAHFFIKF: 23.9
- MAAQGCAASRLLQLLLQLLLLLLLLAAGGARARWRGEGTSAHLRDIFLGRCAEYRALLSPEQRNKNCTAIWEAFKVALDKDPCSVLPSDYDLFINLSRHSIPRDKSLFWENSHLLVNSFADNTRRFMPLSDVLYGRVADFLSWCRQKNDSGLDYQSCPTSEDCENNPVDSFWKRASIQYSKDSSGVIHVMLNGSEPTGAYPIKGFFADYEIPNLQKEKITRIEIWVMHEIGGPNVESCGEGSMKVLEKRLKDMGFQYSCINDYRPVKLLQCVDHSTHPDCALKSAAAATQRKAPSLYTEQRAGLIIPLFLVLASRTQL: 25.7
- MKPALLEVMRMNRICRMVLATCLGSFILVIFYFQSMLHPVMRRNPFGVDICCRKGSRSPLQELYNPIQLELSNTAVLHQMRRDQVTDTCRANSATSRKRRVLTPNDLKHLVVDEDHELIYCYVPKVACTNWKRLMMVLTGRGKYSDPMEIPANEAHVSANLKTLNQYSIPEINHRLKSYMKFLFVREPFERLVSAYRNKFTQKYNISFHKRYGTKIIKRQRKNATQEALRKGDDVKFEEFVAYLIDPHTQREEPFNEHWQTVYSLCHPCHIHYDLVGKYETLEEDSNYVLQLAGVGSYLKFPTYAKSTRTTDEMTTEFFQNISSEHQTQLYEVYKLDFLMFNYSVPSYLKLE [Q9NPF2]: 23.2
- MRSLGALLLLLSACLAVSAGPVPTPPDNIQVQENFNISRIYGKWYNLAIGSTCPWLKKIMDRMTVSTLVLGEGATEAEISMTSTRWRKGVCEETSGAYEKTDTDGKFLYHKSKWNITMESYVVHTNYDEYAIFLTKKFSRHHGPTITAKLYGRAPQLRETLLQDFRVVAQGVGIPEDSIFTMADRGECVPGEQEPEPILIPRVRRAVLPQEEEGSGGGQLVTEVTKKEDSCQLGYSAGPCMGMTSRYFYNGTSMACETFQYGGCMGNGNNFVTEKECLQTCRTVAACNLPIVRGPCRAFIQLWAFDAVKGKCVLFPYGGCQGNGNKFYSEKECREYCGVPGDGDEELLRFSN: 23.9
- MKLPLLLALLFGAVSALHLRSETSTFETPLGAKTLPEDEETPEQEMEETPCRELEEEEEWGSGSEDASKKDGAVESISVPDMVDKNLTCPEEEDTVKVVGIPGCQTCRYLLVRSLQTFSQAWFTCRRCYRGNLVSIHNFNINYRIQCSVSALNQGQVWIGGRITGSGRCRRFQWVDGSRWNFAYWAAHQPWSRGGHCVALCTRGGHWRRAHCLRRLPFICSY: 26.5

stdin: Report percentage of EdU-negative for MAARALCMLGLVLALLSSSSAEEYVGLSANQCAVPAKDRVDCGYPHVTPKECNNRGCCFDSRIPGVPWCFKPLQEAECTF please.
stdout: 26.6

stdin: Do the same for MRPLLCALTGLALLRAAGSLAAAEPFSPPRGDSAQSTACDRHMAVQRRLDVMEEMVEKTVDHLGTEVKGLLGLLEELAWNLPPGPFSPAPDLLGDGF [Q5JTB6] please
stdout: 28.1

stdin: Do the same for MQRLRWLRDWKSSGRGLTAAKEPGARSSPLQAMRILQLILLALATGLVGGETRIIKGFECKPHSQPWQAALFEKTRLLCGATLIAPRWLLTAAHCLKPRYIVHLGQHNLQKEEGCEQTRTATESFPHPGFNNSLPNKDHRNDIMLVKMASPVSITWAVRPLTLSSRCVTAGTSCLISGWGSTSSPQLRLPHTLRCANITIIEHQKCENAYPGNITDTMVCASVQEGGKDSCQGDSGGPLVCNQSLQGIISWGQDPCAITRKPGVYTKVCKYVDWIQETMKNN [Q9UBX7] please
stdout: 27.5

stdin: Do the same for MEKIPVSAFLLLVALSYTLARDTTVKPGAKKDTKDSRPKLPQTLSRGWGDQLIWTQTYEEALYKSKTSNKPLMIIHHLDECPHSQALKKVFAENKEIQKLAEQFVLLNLVYETTDKHLSPDGQYVPRIMFVDPSLTVRADITGRYSNRLYAYEPADTALLLDNMKKALKLLKTEL please
stdout: 25.2

stdin: Do the same for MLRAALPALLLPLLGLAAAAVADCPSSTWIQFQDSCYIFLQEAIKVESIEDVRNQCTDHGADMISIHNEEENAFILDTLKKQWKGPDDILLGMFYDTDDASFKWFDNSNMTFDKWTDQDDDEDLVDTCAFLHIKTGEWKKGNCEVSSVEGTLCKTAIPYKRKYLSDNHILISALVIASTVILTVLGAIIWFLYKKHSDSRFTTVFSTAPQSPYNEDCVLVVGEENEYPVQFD [Q8IX05] please
stdout: 25.8

stdin: Do the same for MPMFIVNTNVPRASVPDGFLSELTQQLAQATGKPPQYIAVHVVPDQLMAFGGSSEPCALCSLHSIGKIGGAQNRSYSKLLCGLLAERLRISPDRVYINYYDMNAANVGWNNSTFA please
stdout: 24.4

stdin: Do the same for MKLMVLVFTIGLTLLLGVQAMPANRLSCYRKILKDHNCHNLPEGVADLTQIDVNVQDHFWDGKGCEMICYCNFSELLCCPKDVFFGPKISFVIPCNNQ please
stdout: 25.5

Where do these numbers come from? They come from the supplement of paper PMC11316812.
